System: S. aureus DSM 20231;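 also: OD595 on entry to stationary phase over no-drug wells; at most 1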
experimental_protocol: fitness (endpoint OD595 vs no drug) (fraction); higher = more growth
experimental_setup: first compound 0.75 µg/mL; partner 0.0625 µg/mL
Some compounds, each annotated with its measured fitness.
Form field (numeric): enter value without unit.

Field: example entries. Status: answers known.
# compound, result_number
data = [
    ("N[C@@H]1CONC1=O [Cycloserine D] + Cc1onc(-c2ccccc2)c1C(=O)N[C@@H]1C(=O)N2[C@@H]1SC(C)(C)[C@@H]2C(=O)O [Oxacillin]", 0.499),
    ("O=C(N[C@H](CO)[C@H](O)c1ccc([N+](=O)[O-])cc1)C(Cl)Cl [Chloramphenicol] + CC1=C\\[C@@H](O)CC(=O)Cc2nc(co2)C(=O)N2CCC=C2C(=O)O[C@H](C(C)C)[C@H](C)/C=C/C(=O)NC\\C=C\\1 [Virginiamycin M1]", 0.735),
]

fitness of O=C(N[C@H](CO)[C@H](O)c1ccc([N+](=O)[O-])cc1)C(Cl)Cl [Chloramphenicol] + Cn1nnc(-c2ccc(-c3ccc(N4C[C@H](CO)OC4=O)cc3F)cn2)n1 [Tedizolid] , assay on S. aureus DSM 20231, is 0.584

Each recorded value in this set is attributed to the supplement of paper PMC10627819.
